Measured self-cleavage kobs at 10000 uM GlcN6P by item
B1: glmS ribozyme (parent)
chain: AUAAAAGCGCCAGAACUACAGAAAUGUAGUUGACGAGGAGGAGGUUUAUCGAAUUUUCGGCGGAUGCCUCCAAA

Variants of: B1
assay text: self-cleavage kobs at 10000 uM GlcN6P; higher = faster cleavage; RNA array
conditions: with glucosamine-6-phosphate
Fewer inactive variants are shown than the library holds.
Output spec: scalar in s⁻¹, unitless text.

[[record]]
chain = "AUAAAAGCGCAAGAACUACAGAAAUGUAGUUGACGUGGAGGAGGUUUAUCGAAUUAUCGGCGGAUGCGUACAAA [C11A A36U U56A C68G C70A]"
readout_value = "4.16e-05"

[[record]]
chain = "AUAAAAGCGCUAGAACUACAGAAAUGUAGUGGACGAGGAGGAGGUUUAUCGAAAUUUCGGCGGAUGCCUCCAAA [C11U U31G U54A]"
readout_value = 0.0029

[[record]]
chain = "AUAAAAGCGCUAGAACUACAGAAAUGUAAUUGACGAGGCGGAGGUUUAUCGAAUUUUCGGCGGAUGCCUCCAAA [C11U G29A A39C]"
readout_value = "3.89e-05"

[[record]]
chain = "AUAAAAGCGCCAGAACUACAGAAAUGUAGUUGACGAGGAGGAGGUUUAGCGAAUUUUCGGCGGAUGCCUCAAAA [U49G C71A]"
readout_value = 0.000137

[[record]]
chain = "AUAAAAGCGCCAGAACUACAGAAAUGUAGUUGACGAGGAGGAGGUUUAUCGCAUUUUCGGCGGAUGACUCCAAA [A52C C67A]"
readout_value = "2.55e-05"

[[record]]
chain = "AUAAAAGCGCCAGAACUACAGAAAUGUAGUUGACGAGGAGGAGGUUUAUCGAAGAUUCGGCGGAUGCCUGCAAA [U54G U55A C70G]"
readout_value = 0.000145


Which self-cleavage kobs at 10000 uM GlcN6P value belongs to AUAAAAGCGCCAGAACUACAGAAAUGUAGUUAACGAGGAGGAGGUUUAUCGAAUAUUCGGCGGAUGCCUCCAAA [G32A U55A] ?
0.00261
